Origin of the recorded values: PubChem BioAssay (Tox21)

- Assay Text: A CellTox Green Cytotoxicity Assay to monitor cytotoxicity in HepG2 cells - 16 hour (AID 1224876); also: nearly all actives have a fitted effect of over 45% in size
- Recorded Conditions: CellTox Green fluorescence; series mostly up to 76.8 µM
Inconclusive results are not listed. The source made the active and inactive calls. Calls follow the shape of the dose curve; as a rule, active = well fitted activation curve with a large enough effect in the repeat runs; inconclusive = weak or mixed curves; inactive = flat fitted curve, though single readings scatter.
Labels: T (active), F (inactive)

Molecule | Cat
O=C(O)c1cccc(O)c1 | F
CNC(=O)N(c1ccccc1)c1ccccc1 | F
CC[C@@H]([C@H](C)O)n1ncn(-c2ccc(N3CCN(c4ccc(OC[C@@H]5CO[C@@](Cn6cncn6)(c6ccc(F)cc6F)C5)cc4)CC3)cc2)c1=O | F
Cc1cc(OI)c(C(C)C)cc1-c1cc(C(C)C)c(OI)cc1C | F
CO/N=C1\CN(c2nc3c(cc2F)c(=O)c(C(=O)O)cn3C2CC2)CC1CN (stereo unspecified) | F
C(=C\c1ccccc1)/CN1CCN(C(c2ccccc2)c2ccccc2)CC1 | F
C[C@]12CCC(=O)C=C1C=C[C@@H]1[C@@H]2CC[C@@]2(C)[C@H]1CC[C@@]21CCC(=O)O1 | F
C[Si]1(C)O[Si](C)(C)O[Si](C)(C)O1 | F
O=C(O)c1ccc(CO)o1 | F
O=C(C(=O)c1ccccc1)c1ccccc1 | F
CCC(=O)OC/C=C/c1ccccc1 | F
CCCOC(=O)c1ccc(N)cc1 | F
NC(=O)Nc1ccc(Cl)c(Cl)c1 | F
CC(C)C(=O)O | F
CC(C)C(OC(=O)c1ccccc1)C(C)(C)COC(=O)c1ccccc1 (stereo unspecified) | F
CC(C)OCC1CO1 (stereo unspecified) | F
COC(=O)c1cc(Cl)ccc1NS(=O)(=O)C(F)(F)F | F
Cc1ccc(/C=N/n2c(-c3ccccc3)csc2=S)cc1 | F
CCCCOC(=O)CCS | F
CCOC(=O)CC(=O)C(=O)OCC | F
NC(=O)Cn1c(=O)cc(CCN2CCN(c3nccc4sccc34)CC2)c2ccc(F)cc21 | F
Cc1ccccc1N1C(=O)c2cc(S(N)(=O)=O)c(Cl)cc2NC1C (stereo unspecified) | F
CC(C)(C)CC(C)(C)c1ccc(OCCO)cc1 | F
C1COCO1 | F
CCC(Cc1ccccc1)(C(=O)c1ccc(N2CCOCC2)cc1)N(C)C (stereo unspecified) | F
C[C@@H]1C[C@H]2[C@@H]3CCC4=CC(=O)C=C[C@]4(C)[C@@]3(F)[C@@H](O)C[C@]2(C)[C@@]1(O)C(=O)CO | F
CC(C)(CCl)c1ccccc1 | F
Oc1cc(O)c(Cl)cc1Cl | F
CCc1c2c(nc3ccc(OC(=O)N4CCC(N5CCCCC5)CC4)cc13)-c1cc3c(c(=O)n1C2)COC(=O)[C@]3(O)CC | F
O=C(O)c1cccnc1C(=O)O | F
Cn1c(=O)c2c(ncn2CC(=O)O)n(C)c1=O | F
COC(=O)[C@@H]1CC2=CC(=O)CC[C@]2(C)[C@@]23O[C@@H]2C[C@@]2(C)[C@@H](CC[C@@]24CCC(=O)O4)[C@H]13 | F
CC1=C(C=O)C(C)(C)CCC1 | F
Cc1ccc(Nc2nccc(N(C)c3ccc4c(C)n(C)nc4c3)n2)cc1S(N)(=O)=O | F
CCCC1C(CC)=CC(CC)=CN1c1ccccc1 (stereo unspecified) | F
N#C/C(=C1\SCC(c2ccccc2Cl)S1)n1ccnc1 (stereo unspecified) | F
OC/C(Br)=C(\Br)CO | F
CC1(C)C(=O)N(Br)C(=O)N1Cl | F
CN1CCCN=C1/C=C/c1cccs1 | F
CCc1nn(CCCN2CCN(c3cccc(Cl)c3)CC2)c(=O)n1CCOc1ccccc1 | F
O=C(CCC1CCN(Cc2ccccc2)CC1)c1ccc2c(c1)NCCCC2 | F
Cc1ccc(S)cc1 | F
Cc1cc(O)c(C(C)C)cc1Cl | T
CCOC(=O)/C=C/C(=O)O | F
CCc1cccc(N(C)C(N)=Nc2cccc3ccccc23)c1 | F
CC(=O)CC(c1ccc([N+](=O)[O-])cc1)c1c(O)c2ccccc2oc1=O (stereo unspecified) | F
O=C(/C=C/c1ccccc1)OCCCc1ccccc1 | F
O=C(N/N=C/c1ccc([N+](=O)[O-])o1)c1ccc(O)cc1 | F
COCC(O)CO (stereo unspecified) | F
CN(C)C(=O)Nc1ccc(Oc2ccc(Cl)cc2)cc1 | F
Cc1nc2ccccc2s1 | F
